Each recorded value in this set is attributed to paper PMC6315057.

experiment: Human plasma protein binding; assay type: in vitro ADME; conditions: plasma
Parameter fraction unbound: see the listing below.
assay_metric: fraction unbound

compound="CC1COCCN1c1cc(OCc2ccccc2)nc(-c2nccn2C)n1 (centres unmarked)" result=0.042
compound="Cc1nc(C(=O)NC(C)c2ccc(F)cc2)c(NC(=O)Cc2ccccc2)[nH]1 (centres unmarked)" result=0.073
compound=Cc1nccc(N2CCC(C(=O)N(C)CCN(C)S(=O)(=O)c3ccc(Br)cc3)CC2)n1 result=0.24
compound=COc1ccc(CC(=O)Nc2[nH]nc(C)c2-c2ccccc2)c(Cl)c1 result=0.021
compound=Cc1nccc(N2CCC(C(=O)N3CCCN(S(=O)(=O)c4ccc(Br)cc4)CC3)CC2)n1 result=0.23
compound="O=C(Cc1cc(F)cc(F)c1)NCC(=O)NC1C(=O)Nc2ccccc2SC1c1ccccc1 (centres unmarked)" result=0.12
compound=Cc1csc(CN(C)c2nc3c(s2)C(=O)NCCC3)n1 result=0.4
compound="O=C(NCCCn1ccnc1)NC1C(=O)Nc2ccccc2SC1c1cc(F)ccc1F (centres unmarked)" result=0.016
compound="Cc1nc(C(=O)NC(C)c2cccc3ccccc23)c(NC(=O)Cc2ccccc2)[nH]1 (centres unmarked)" result=0.011
compound=CN(Cc1cccc(Cl)c1)S(=O)(=O)c1ccc2c(c1)C(=O)NCC2 result=0.05
compound=O=C1NCCCc2nc(N3CCN(c4ccccc4F)CC3)sc21 result=0.088
compound=CN(Cc1cccc(Br)c1)S(=O)(=O)c1ccc2c(c1)C(=O)NCC2 result=0.034
compound="CN(CC1CCCC(=O)N1)c1cc(OCc2ccccc2)nc(-c2nccn2C)n1 (centres unmarked)" result=0.2
compound=O=C(Cc1cccc(F)c1)Nc1[nH]ncc1-c1ccccc1 result=0.12
compound="CCc1ccc(CN2CCCC2c2nc(C(=O)N(C)C)cs2)s1 (centres unmarked)" result=0.078
compound="CNC(=O)c1csc(C2CCCN2Cc2ccc(C)c(F)c2)n1 (centres unmarked)" result=0.05
compound=COc1ccc(C(=O)Nc2ccc(CNC(=O)c3ccnn3C)cc2C)cn1 result=0.003
